Numbers sourced from PubChem BioAssay (NCI).

Test system: SF-268 CNS
method: NCI-60 one-dose screen, 48 h (100 = growth as untreated, 0 = no growth, -100 = all killed)
reported.conditions: 10 µM unless noted
About 83,000 compounds went through this panel and 20% of them were active in at least one assay; those are over-represented in the sample as a whole.
attribute.measured: growth (%)
Numeric answer only, unit % assumed.

Fill blank: measured growth of the molecule `CCn1c(Sc2nnc(NC(=O)CCN3CCCC3)s2)nc2c1c(=O)n(C)c(=O)n2C` is ____.
102

Then this molecule: `O=C1c2cccc3c(-c4ccc(-c5nc6c7ccccc7c7ccccc7c6[nH]5)cc4)ccc(c23)C(=O)N1CCN1CCNCC1`
104

Quick one: O=C1CSC(c2ccccc2)N1c1ccccc1 (stereo not drawn)
105
